For each entry below, report its drug sensitivity score value.
# System: Calu-3
# Method: drug sensitivity score (DSS) for viability; higher = more toxic; extreme values may be limits of the assay
# Condition notes: 72 h
Enter a number only.

// drug sensitivity score value for O=C(/C=C/c1ccc(O)c(O)c1)O[C@H](Cc1ccc(O)c(O)c1)C(=O)O [rosmarinic-acid] : 0.4

// drug sensitivity score value for CCCCCCCCCCCCCCCC(=O)OC(C)C [isopropyl-palmitate] : 0

// drug sensitivity score value for CCCSc1ccc2[nH]c(NC(=O)OC)nc2c1 [albendazole] : 2.4

// drug sensitivity score value for COc1ccc(-c2cc(C(F)F)nn2-c2ccc(S(N)(=O)=O)cc2)cc1F [deracoxib] : 0

// drug sensitivity score value for O=C(COc1ccc(Cl)cc1)N[C@H]1CC[C@H](NC(=O)COc2ccc(Cl)cc2)CC1 [ISRIB] : 0

// drug sensitivity score value for COc1cc2c(cc1OC)[C@H](C)NCC2 [Isoquinoline,-6,7-dimethoxy-1-methyl-1,2,3,4-tetrahydro,] : 0

// drug sensitivity score value for CN1Cc2c(N)cccc2C(c2ccccc2)C1 (stereo not drawn) [nomifensine] : 0

// drug sensitivity score value for CC(=O)O[C@@H]1C[C@H]2C(C)(C)C(=O)C=C[C@]2(C)[C@H]2CC[C@@]3(C)[C@H](c4ccoc4)OC(=O)[C@H]4O[C@]43[C@@]21C [gedunin] : 0

---

# Test system: A549-ACE2 infected with SARS-CoV-2
# Method: cell count relative to DMSO; higher = less toxic
# Condition notes: 0.3 µM; 24 h
For each entry below, report its cell count value.
Don't forget the unit after the number, please.

// cell count value for C=C1C(=O)[C@]23[C@H](O)[C@H]1CC[C@H]2[C@@]12CO[C@]3(O)[C@@H](O)[C@@H]1C(C)(C)CC[C@@H]2O : 101%

// cell count value for N#CC[C@@H](C1CCCC1)n1cc(-c2ncnc3[nH]ccc23)cn1 [ruxolitinib-(S)] : 88%

// cell count value for Fc1cc(-c2cccc3ncc(-c4cnn(C5CCNCC5)c4)nc23)cc(F)c1CN1CCOCC1 : 103%

---

# Tested on: Vero E6
# Method: cell viability relative to DMSO; higher = less toxic
# Condition notes: 72 h; 10 nM
For each entry below, report its cell viability value.
Unit % implied. Number only.

// cell viability value for CCCN[C@@H]1CCc2c(OC)cccc2[C@@H]1C [AJ76-(+)] : 104

// cell viability value for O=C(O)CCCN1CCC(O[C@@H](c2ccc(Cl)cc2)c2ccccn2)CC1 : 98.3

// cell viability value for O=Cc1cn(Cc2ccc(Cl)cc2)c2ccccc12 : 102

// cell viability value for c1cnc(SCc2cccnc2)nc1 : 98.5

// cell viability value for COc1cnc(-c2ccc(Cn3c(CC(C)(C)C(=O)O)c(SC(C)(C)C)c4cc(OC[C@@H]5Cc6ccccc6N5C(C)=O)ccc43)cc2)nc1 : 105

// cell viability value for C[C@H](NC[C@H](O)CP(=O)(O)CC1CCCCC1)c1ccc(Cl)c(Cl)c1 : 101

// cell viability value for O=C1[C@@H]2[C@H]3CC[C@H](C3)[C@@H]2C(=O)N1CCCCN1CCN(c2ncccn2)CC1 : 104

// cell viability value for Cc1cccc(-c2nn3c(c2-c2ccnc4ccc(C(N)=O)cc24)CCC3)n1 : 99

// cell viability value for COc1cc(Cc2cnc(N)nc2N)cc(OC)c1OC : 91.4

// cell viability value for CCCCc1nc(-c2ccc(OCCCN(CC)CC)cc2)cn1-c1ccc(Oc2ccc(Cl)cc2)cc1 : 105

// cell viability value for O=C(Nc1cccnc1)N1CCC(Cc2cccc(Oc3ccc(C(F)(F)F)cn3)c2)CC1 : 96.8

// cell viability value for CCNC(=O)[C@@H]1CCCN1C(=O)[C@H](CCCNC(=N)N)NC(=O)[C@H](CC(C)C)NC(=O)[C@@H](CC(C)C)NC(=O)[C@H](Cc1ccc(O)cc1)NC(=O)[C@H](CO)NC(=O)[C@H](Cc1c[nH]c2ccccc12)NC(=O)[C@H](Cc1c[nH]cn1)NC(=O)[C@@H]1CCC(=O)N1 [leuprolide] : 99.3

// cell viability value for O=C1NC(c2cccc([N+](=O)[O-])c2)=CCN1c1ccccc1O : 94.3

// cell viability value for CC1(C)OC[C@H](NC(=O)Nc2ccc(Br)cc2Br)[C@H](c2ccccc2)O1 : 101

// cell viability value for CCCCOc1ccc(CC/C=C2\SC(=O)N(CCN)C2=O)cc1 : 103

// cell viability value for COc1cc(Cc2cnc(N)nc2N)c(C(C)C)cc1OC : 95.7

// cell viability value for CC(=O)Nc1ccc(OC(C)=O)cc1 [diacetamate] : 96

src = the supplement of paper PMC13380429
